# Target: T1, huNABA-avi-his (hybrid protein N-A1-B3-A2: N and A1 domains of human BGP, B3 domain of human CEA, A2 domain … (human, biotinylated at the avi tag (in vivo, co-transfected biotin ligase)))
# T1 construct: also called NABA-avi-his reagent; biotinylated NABA
# T1 chain: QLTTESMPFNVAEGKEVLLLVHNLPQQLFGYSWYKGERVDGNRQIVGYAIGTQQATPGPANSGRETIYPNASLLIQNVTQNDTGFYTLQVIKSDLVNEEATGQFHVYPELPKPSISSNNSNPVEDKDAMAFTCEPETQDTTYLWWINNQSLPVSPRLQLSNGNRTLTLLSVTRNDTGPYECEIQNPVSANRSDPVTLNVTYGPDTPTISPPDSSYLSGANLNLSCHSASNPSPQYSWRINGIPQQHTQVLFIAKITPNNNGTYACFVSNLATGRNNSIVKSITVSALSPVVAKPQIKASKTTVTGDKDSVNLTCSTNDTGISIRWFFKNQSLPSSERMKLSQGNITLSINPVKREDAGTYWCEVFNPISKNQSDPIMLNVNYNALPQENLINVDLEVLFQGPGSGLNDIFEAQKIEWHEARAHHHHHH
# Measurement description: Biacore, column Affinity, CDR-H3 rows; antigen not named on the sheet, NABA-avi-his per paragraph 230
Parameter Kd: see the listing below.
Kindly provide the numeric value in µM only, without the unit symbol.

Solved cases (6 shown):
[
  {
    "Binder": "H3 Full (5) 19 (Fab, V domains shown) VH: QVQLVQSGSELKKPGASVKVSCKASGYTFTEFGMSWVRQAPGQGLEWMGWINTKTGEATYVEEFKGRFVFSLDTSVSTAYLQISSLKAEDTAVYYCARWDAFEYVKALDYWGQGTTVTVSS VL: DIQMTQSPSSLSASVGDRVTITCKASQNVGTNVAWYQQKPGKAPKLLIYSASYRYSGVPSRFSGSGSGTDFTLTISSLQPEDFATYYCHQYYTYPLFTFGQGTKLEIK",
    "Metric": "Kd",
    "Value": 0.026
  },
  {
    "Binder": "H3 Full (5) 28 (Fab, V domains shown) VH: QVQLVQSGSELKKPGASVKVSCKASGYTFTEFGMNWVRQAPGQGLEWMGWINTKTGEATYVEEFKGRFVFSLDTSVSTAYLQISSLKAEDTAVYYCARWDFFYYVQTMDYWGQGTTVTVSS VL: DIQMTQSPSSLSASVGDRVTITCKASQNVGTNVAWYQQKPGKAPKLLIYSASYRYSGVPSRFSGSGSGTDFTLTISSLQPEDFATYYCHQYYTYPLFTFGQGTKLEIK",
    "Metric": "Kd",
    "Value": 0.081
  },
  {
    "Binder": "H3 Full (5) 27 (Fab, V domains shown) VH: QVQLVQSGSELKKPGASVKVSCKASGYTFTEFGMNWVRQAPGQGLEWMGWINTKTGEATYVEEFKGRFVFSLDTSVSTAYLQISSLKAEDTAVYYCARWDFSYYVEAMDYWGQGTTVTVSS VL: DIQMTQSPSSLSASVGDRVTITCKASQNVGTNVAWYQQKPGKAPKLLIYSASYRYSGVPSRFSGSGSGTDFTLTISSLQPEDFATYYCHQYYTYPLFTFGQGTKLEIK",
    "Metric": "Kd",
    "Value": 0.132
  },
  {
    "Binder": "3E1 (Fab, V domains shown) VH: QVQLVQSGSELKKPGASVKVSCKASGYTFTEFGMNWVRQAPGQGLEWMGWINTKTGEATYVEEFKGRFVFSLDTSVSTAYLQISSLKAEDTAVYYCARWDFVDYVEAMDYWGQGTTVTVSS VL: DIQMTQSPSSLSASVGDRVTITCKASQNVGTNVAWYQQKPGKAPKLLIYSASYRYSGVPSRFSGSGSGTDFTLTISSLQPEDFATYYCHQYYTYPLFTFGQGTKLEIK",
    "Metric": "Kd",
    "Value": 1.89
  },
  {
    "Binder": "H3 Full (5) 8 (Fab, V domains shown) VH: QVQLVQSGSELKKPGASVKVSCKASGYTFTEFGMNWVRQAPGQGLEWMGWINTKTGEATYVEEFKGRFVFSLDTSVSTAYLQISSLKAEDTAVYYCARWDFFEYFKTMDYWGQGTTVTVSS VL: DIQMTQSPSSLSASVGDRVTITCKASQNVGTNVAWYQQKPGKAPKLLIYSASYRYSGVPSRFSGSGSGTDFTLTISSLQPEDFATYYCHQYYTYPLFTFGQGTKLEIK",
    "Metric": "Kd",
    "Value": 0.051
  },
  {
    "Binder": "2D7 (Fab, V domains shown) VH: QVQLVQSGSELKKPGASVKVSCKASGYTFTEFGMNWVRQAPGQGLEWMGWINTKTGEATYVEEFKGRFVFSLDTSVSTAYLQISSLKAEDTAVYYCARWDFYWYVEAMDYWGQGTTVTVSS VL: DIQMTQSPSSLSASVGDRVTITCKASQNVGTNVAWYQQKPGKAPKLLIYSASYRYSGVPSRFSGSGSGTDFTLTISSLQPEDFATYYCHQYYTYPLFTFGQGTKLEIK",
    "Metric": "Kd",
    "Value": 0.746
  }
]

Next binder, please.
Q) Would you kindly share the measured Kd for PR1A3 (Fab, V domains shown, also called PR1A3 wt/wt; pMS22) VH: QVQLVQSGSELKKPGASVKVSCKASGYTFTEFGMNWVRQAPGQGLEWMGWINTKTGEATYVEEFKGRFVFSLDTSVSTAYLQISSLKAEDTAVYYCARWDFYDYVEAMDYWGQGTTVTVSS VL: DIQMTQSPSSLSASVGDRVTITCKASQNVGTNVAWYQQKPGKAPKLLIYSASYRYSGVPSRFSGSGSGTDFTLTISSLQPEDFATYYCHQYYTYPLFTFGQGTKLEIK ?
A) 3.68
